Molecular target: bradykinin 1 receptor (B1R) of the rat (Rattus norvegicus, UniProt P97583)
Construct: expressed in transfected cells; host or cells: CHO K1 cells
Sequence (P97583 1-337): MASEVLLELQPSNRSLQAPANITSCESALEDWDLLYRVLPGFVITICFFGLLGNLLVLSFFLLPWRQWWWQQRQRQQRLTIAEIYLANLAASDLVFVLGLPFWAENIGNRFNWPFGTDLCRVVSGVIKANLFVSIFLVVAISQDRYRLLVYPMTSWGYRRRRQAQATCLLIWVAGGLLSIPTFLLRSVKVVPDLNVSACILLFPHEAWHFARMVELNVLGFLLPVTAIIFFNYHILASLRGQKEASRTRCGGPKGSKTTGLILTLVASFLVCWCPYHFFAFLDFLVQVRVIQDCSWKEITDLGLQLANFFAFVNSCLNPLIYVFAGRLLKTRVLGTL
Test: Functional investigation on the rat bradykinin 1 receptor (B1R), Ca2+ FLIPR assay in CHO K1 rB1R cells
Type: cell-based
Details: CHO-K1, B1R antagonism rat; test substance 10 μM; Ca2+ FLIPR, CHO K1 rB1R cells; read-out: B1R Ant. r [10 μM] % Inhibition
Decide using inhibition at 10 µM: a value greater than or equal to 20% is Condition met, a smaller one is Condition not met.

Answered examples (3):
COc1ccc(S(=O)(=O)N2Cc3ccccc3CC2COCC(=O)NCCC2CCC(C(c3cccs3)N(C)C)CC2)cc1 (stereo not drawn) [Example 48] : Condition met
CN(C)C(c1ccccc1)C1CCC(NC(=O)CCNC(=O)c2nc(-c3ccccn3)no2)CC1 (stereo not drawn) [Example 771] : Condition not met
COc1ccc(S(=O)(=O)N2CCCCC2COCC(=O)NCCC2CCC(C(c3cccc(F)c3)N(C)C)CC2)cc1OC (stereo not drawn) [Example 191] : Condition not met

**Q:** Tell me whether inhibition at 10 µM is at least 20% here: CN(C)C(c1cccs1)C1CCC(NC(=O)COCCN(C)S(=O)(=O)c2cccc(C(F)(F)F)c2)CC1 (stereo not drawn) [Example 152]
**A:** Condition not met

**Q:** Tell me whether inhibition at 10 µM is at least 20% here: COc1cc(C)c(S(=O)(=O)N(CCOCC(=O)NC2CCC(C(c3ccccc3)N(C)C)CC2)Cc2ccccc2)c(C)c1C (stereo not drawn) [Example 193]
**A:** Condition not met

**Q:** Tell me whether inhibition at 10 µM is at least 20% here: CN(C)C(CCc1ccccc1)C1CCC(NC(=O)CCNC(=O)c2nc(-c3ccc(Cl)cc3Cl)no2)CC1 (stereo not drawn) [Example 788]
**A:** Condition not met
